- Tested on: A549
- test.name: Modified MTT cytotoxicity assay, A549
- reported.conditions: read-out: Cytotoxicity IC50 A549; MTT, non-small cell lung cancer cell line
Listed below: IC50 values for each entry.
Returns: string containing the number followed by the unit.

Recorded results for 2 compounds are shown here.
{"chemical.string": "CC(=O)Nc1ccc(S(=O)(=O)N2C/C(=C\\c3cccc(C(F)(F)F)c3)C(=O)/C(=C/c3cccc(C(F)(F)F)c3)C2)cc1", "target.desc": "A549", "IC50": "210 nM"}
{"chemical.string": "O=C1/C(=C/c2ccc(C(F)(F)F)cc2)CN(S(=O)(=O)c2ccc([N+](=O)[O-])cc2)C/C1=C\\c1ccc(C(F)(F)F)cc1", "target.desc": "A549", "IC50": "170 nM"}

// moving on: another record for IC50
Query block: Look up A549 data: IC50 of `O=C1/C(=C/c2ccc(C(F)(F)F)cc2)CN(S(=O)(=O)c2ccc(C(F)(F)F)cc2)C/C1=C\c1ccc(C(F)(F)F)cc1` , then report it.
Result block: 270 nM

---

- Tested on: HepG2
- test.name: Modified MTT cytotoxicity assay, HepG2
- Format: cell-based, Human
- reported.conditions: MTT, 24 h incubation, three replicates; read-out: Cytotoxicity IC50 HepG2
Listed below: IC50 values for each entry.
State the answer as a number, implicitly in µM.

{"chemical.string": "CC(=O)Nc1ccc(S(=O)(=O)N2C/C(=C\\c3cccc(C(F)(F)F)c3)C(=O)/C(=C/c3cccc(C(F)(F)F)c3)C2)cc1", "observed.value": 1.3}
{"chemical.string": "O=C1/C(=C/c2ccc(C(F)(F)F)cc2)CN(S(=O)(=O)c2ccc(F)cc2)C/C1=C\\c1ccc(C(F)(F)F)cc1", "observed.value": 3.1}
{"chemical.string": "CC(=O)Nc1ccc(S(=O)(=O)N2C/C(=C\\c3ccc(C(F)(F)F)cc3)C(=O)/C(=C/c3ccc(C(F)(F)F)cc3)C2)cc1", "observed.value": 1.8}
{"chemical.string": "O=C1/C(=C/c2ccc(C(F)(F)F)cc2)CN(S(=O)(=O)c2ccc([N+](=O)[O-])cc2)C/C1=C\\c1ccc(C(F)(F)F)cc1", "observed.value": 1.2}
{"chemical.string": "CC(=O)Nc1ccc(S(=O)(=O)N2C/C(=C\\c3ccccc3C(F)(F)F)C(=O)/C(=C/c3ccccc3C(F)(F)F)C2)cc1", "observed.value": 12.9}

Query block: Look up HepG2 data: IC50 of `O=C1/C(=C/c2ccc(C(F)(F)F)cc2)CN(S(=O)(=O)c2ccc(C(F)(F)F)cc2)C/C1=C\c1ccc(C(F)(F)F)cc1` , then report it.
Result block: 0.9

Query block: Look up HepG2 data: IC50 of `N#Cc1ccc(S(=O)(=O)N2C/C(=C\c3ccc(C(F)(F)F)cc3)C(=O)/C(=C/c3ccc(C(F)(F)F)cc3)C2)cc1` , then report it.
Result block: 1.7

---

Listed below: inhibition at 5 µM values for each entry.
- System: TNF-α
- test.name: ELISA of TNF-α release in LPS-stimulated RAW264.7 cells
- Assay type: cell-based, mouse
- reported.conditions: Mus musculus, RAW264.7, BAPs (5 μM) + LPS (1 μg/mL), RAW264.7, ELISA; read-out: Inhibition rate TNF-α

Recorded results for 2 compounds are shown here.
{"compound": "O=C1/C(=C/c2ccc(C(F)(F)F)cc2)CN(S(=O)(=O)c2ccc(Br)cc2)C/C1=C\\c1ccc(C(F)(F)F)cc1 [BAP 28]", "value.kind": "inhibition at 5 µM", "observed.value": "> 70%"}
{"compound": "N#Cc1ccc(S(=O)(=O)N2C/C(=C\\c3cccc(C(F)(F)F)c3)C(=O)/C(=C/c3cccc(C(F)(F)F)c3)C2)cc1 [BAP 20]", "value.kind": "inhibition at 5 µM", "observed.value": "75.2%"}

Query block: Please supply the value of reported inhibition at 5 µM for the item O=C1/C(=C/c2cccc(C(F)(F)F)c2)CN(S(=O)(=O)c2ccc([N+](=O)[O-])cc2)C/C1=C\c1cccc(C(F)(F)F)c1 [BAP 15]
Result block: 62.1%

Query block: Please supply the value of reported inhibition at 5 µM for the item O=C1/C(=C/c2ccccc2C(F)(F)F)CN(S(=O)(=O)c2ccc(Cl)cc2)C/C1=C\c1ccccc1C(F)(F)F [BAP 9]
Result block: 47.1%

Query block: Please supply the value of reported inhibition at 5 µM for the item O=C1/C(=C/c2cccc(C(F)(F)F)c2)CN(S(=O)(=O)c2ccc(F)cc2)C/C1=C\c1cccc(C(F)(F)F)c1 [BAP 17]
Result block: 65.6%

Query block: Please supply the value of reported inhibition at 5 µM for the item Cc1ccc(S(=O)(=O)N2C/C(=C\c3ccccc3C(F)(F)F)C(=O)/C(=C/c3ccccc3C(F)(F)F)C2)cc1 [BAP 5]
Result block: 46.2%

Query block: Please supply the value of reported inhibition at 5 µM for the item O=C1/C(=C/c2ccccc2C(F)(F)F)CN(S(=O)(=O)c2ccc([N+](=O)[O-])cc2)C/C1=C\c1ccccc1C(F)(F)F [BAP 6]
Result block: 61%
